system_name: Endothelin-1 receptor (Homo sapiens, UniProt P25101)
assay_name: Displacement of 125I-labelled endothelin-1 from human ETA receptor expressed in CHOK1 cell membranes
measured_metric: IC50 (µM)

I = CCCc1nc2c(C)cc(C(=O)Nc3ccccc3OC)cc2n1Cc1ccc(-c2ccccc2C(=O)Nc2nnn[nH]2)cc1
II = CCCc1nc2c(C)cc(C(=O)NCc3ccc(OC)c(OC)c3)cc2n1Cc1ccc(-c2ccccc2C(=O)Nc2nnn[nH]2)cc1
Which entry has a larger number for IC50, I or II ? Your choice should be expressed through its label.
II

---

system_name: Endothelin-1 receptor (Homo sapiens, UniProt P25101)
assay_name: Displacement of 125I-labelled endothelin-1 from human ETA receptor expressed in CHOK1 cell membranes
measured_metric: IC50 (µM)

CCCc1nc2c(C)cc(C(=O)NCCc3ccccc3F)cc2n1Cc1ccc(-c2ccccc2C(=O)Nc2nnn[nH]2)cc1 :: 11

1 = CCCc1nc2c(C)cc(C(=O)NCCc3ccc(OC)cc3)cc2n1Cc1ccc(-c2ccccc2C(=O)Nc2nnn[nH]2)cc1
2 = CCCc1nc2c(C)cc(C(=O)NCCN3CCOCC3)cc2n1Cc1ccc(-c2ccccc2C(=O)Nc2nnn[nH]2)cc1
3 = CCCc1nc2c(C)cc(C(=O)NCCN3CCCC3)cc2n1Cc1ccc(-c2ccccc2C(=O)Nc2nnn[nH]2)cc1
Reorder: IC50, max to min. Your answer should be the labels, listed in the requested order.
1, 3, 2

---

pIC50: −log10 of the molar value.
As an illustration, consider measured pIC50 for molecules on Type-1 angiotensin II receptor (Homo sapiens, UniProt P30556).
Sequence (P30556 whole entry): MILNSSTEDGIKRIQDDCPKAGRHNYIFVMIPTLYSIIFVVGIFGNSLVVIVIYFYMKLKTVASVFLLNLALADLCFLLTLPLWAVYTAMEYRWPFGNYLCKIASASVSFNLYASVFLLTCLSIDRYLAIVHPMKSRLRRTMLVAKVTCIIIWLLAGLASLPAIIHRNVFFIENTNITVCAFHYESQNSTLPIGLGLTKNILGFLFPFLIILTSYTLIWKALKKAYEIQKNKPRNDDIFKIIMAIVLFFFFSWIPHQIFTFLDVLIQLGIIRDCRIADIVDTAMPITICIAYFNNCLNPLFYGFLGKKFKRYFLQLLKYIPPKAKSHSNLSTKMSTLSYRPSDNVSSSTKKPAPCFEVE
measured_metric: pIC50

Please review the following examples before continuing.
CCCc1nc2c(C)cc(C(=O)NCCc3ccccc3)cc2n1Cc1ccc(-c2ccccc2C(=O)Nc2nnn[nH]2)cc1 :: 8.41
CCCc1nc2c(C)cc(C(=O)NC(C)(C)C)cc2n1Cc1ccc(-c2ccccc2C(=O)Nc2nnn[nH]2)cc1 :: 6.41
CCCc1nc2c(C)cc(C(=O)NCCN3CCN(C)CC3)cc2n1Cc1ccc(-c2ccccc2C(=O)Nc2nnn[nH]2)cc1 :: 7.27

1 = CCCc1nc2c(C)cc(C(=O)NCCN3CCCCC3)cc2n1Cc1ccc(-c2ccccc2C(=O)Nc2nnn[nH]2)cc1
2 = CCCNC(=O)c1cc(C)c2nc(CCC)n(Cc3ccc(-c4ccccc4C(=O)Nc4nnn[nH]4)cc3)c2c1
Which entry has a larger number for pIC50, 1 or 2 ? Your choice should be expressed through its label.
1
(1: 7.17, 2: 6.44)

---

system_name: Endothelin-1 receptor (Homo sapiens, UniProt P25101)
assay_name: Displacement of 125I-labelled endothelin-1 from human ETA receptor expressed in CHOK1 cell membranes
measured_metric: IC50 (µM)

A = CCCc1nc2c(C)cc(C(=O)NCc3ccccc3OC)cc2n1Cc1ccc(-c2ccccc2C(=O)Nc2nnn[nH]2)cc1
B = CCCc1nc2c(C)cc(C(=O)NCc3cccc(OC)c3)cc2n1Cc1ccc(-c2ccccc2C(=O)Nc2nnn[nH]2)cc1
Form: Entry with minimum IC50 (choose one): A / B Your choice should be expressed through its label.
B
(B: 0.625 µM, A: 7.2 µM)

---

system_name: UniProtKB P25101
Sequence (P25101 whole entry): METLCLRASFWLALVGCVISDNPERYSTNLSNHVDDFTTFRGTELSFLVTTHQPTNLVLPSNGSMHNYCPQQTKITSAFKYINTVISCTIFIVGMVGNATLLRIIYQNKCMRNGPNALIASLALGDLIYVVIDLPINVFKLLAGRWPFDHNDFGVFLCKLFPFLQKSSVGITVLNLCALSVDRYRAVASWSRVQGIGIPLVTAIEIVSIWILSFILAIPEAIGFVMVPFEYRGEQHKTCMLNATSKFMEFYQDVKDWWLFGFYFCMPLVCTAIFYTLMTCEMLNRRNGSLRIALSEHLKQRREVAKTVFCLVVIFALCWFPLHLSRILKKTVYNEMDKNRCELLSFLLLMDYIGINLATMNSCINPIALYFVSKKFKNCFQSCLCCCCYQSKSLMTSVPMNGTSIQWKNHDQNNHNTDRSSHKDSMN
assay_name: Displacement of 125I-labelled endothelin-1 from human ETA receptor expressed in CHOK1 cell membranes
measured_metric: IC50 (µM)

Please review the following examples before continuing.
CCCc1nc2c(C)cc(C(=O)NCCc3ccccc3)cc2n1Cc1ccc(-c2ccccc2C(=O)Nc2nnn[nH]2)cc1 :: 0.126
CCCc1nc2c(C)cc(C(=O)NCCN3CCN(C)CC3)cc2n1Cc1ccc(-c2ccccc2C(=O)Nc2nnn[nH]2)cc1 :: 9.1

P = CCCc1nc2c(C)cc(C(=O)NCCc3ccccc3OC)cc2n1Cc1ccc(-c2ccccc2C(=O)Nc2nnn[nH]2)cc1
Q = CCCc1nc2c(C)cc(C(=O)NCc3ccccc3)cc2n1Cc1ccc(-c2ccccc2C(=O)Nc2nnn[nH]2)cc1
Form: Entry with minimum IC50 (choose one): P / Q Your choice should be expressed through its label.
Q
